- assayed.target: PRMT5 (Homo sapiens)
- Construct: purchased Viva (custom protein)
- Sequence (O14744 whole entry): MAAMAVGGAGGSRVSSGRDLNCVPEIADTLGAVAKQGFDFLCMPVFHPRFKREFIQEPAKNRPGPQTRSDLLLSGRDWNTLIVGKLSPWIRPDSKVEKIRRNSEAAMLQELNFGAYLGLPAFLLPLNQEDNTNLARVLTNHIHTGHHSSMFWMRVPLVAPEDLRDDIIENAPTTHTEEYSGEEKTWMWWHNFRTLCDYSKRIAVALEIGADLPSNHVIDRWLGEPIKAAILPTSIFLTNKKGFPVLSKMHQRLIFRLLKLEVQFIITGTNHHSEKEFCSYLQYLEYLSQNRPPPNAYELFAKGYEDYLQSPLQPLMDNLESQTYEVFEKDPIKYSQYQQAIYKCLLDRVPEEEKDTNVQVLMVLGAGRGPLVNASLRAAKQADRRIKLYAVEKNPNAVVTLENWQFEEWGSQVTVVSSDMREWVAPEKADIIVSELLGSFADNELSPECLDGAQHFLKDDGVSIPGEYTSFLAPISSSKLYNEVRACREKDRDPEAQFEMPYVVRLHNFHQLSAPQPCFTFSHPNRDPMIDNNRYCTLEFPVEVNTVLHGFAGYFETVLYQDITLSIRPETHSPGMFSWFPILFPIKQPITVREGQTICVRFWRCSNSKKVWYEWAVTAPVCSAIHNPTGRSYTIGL
- Sequence (Q9BQA1 whole entry partner): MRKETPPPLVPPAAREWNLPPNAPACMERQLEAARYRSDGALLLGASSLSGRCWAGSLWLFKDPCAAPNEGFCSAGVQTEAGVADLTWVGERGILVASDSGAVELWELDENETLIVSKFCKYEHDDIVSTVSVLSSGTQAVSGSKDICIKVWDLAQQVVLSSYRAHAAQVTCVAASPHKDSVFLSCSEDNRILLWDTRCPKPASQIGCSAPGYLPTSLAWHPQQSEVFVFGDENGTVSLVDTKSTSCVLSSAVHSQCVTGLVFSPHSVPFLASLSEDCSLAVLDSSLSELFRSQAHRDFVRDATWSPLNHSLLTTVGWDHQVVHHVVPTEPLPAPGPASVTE
- protocol: PRMT5 biochemical IC50 assay with MTA as cofactor
- condition.info: PRMT5, MTA as cofactor; read-out: MTA IC50
pIC50: −log10 of the molar value.
quantity.name: pIC50

{"molecule": "C[C@H]1CC[C@H](c2ccc(-c3cncs3)cc2)N(C(=O)C(=O)Nc2cncc(C(N)=O)c2)C1 (single isomer, unassigned) [Compound 821]", "assayed.target": "PRMT5 (Homo sapiens)", "quantity.name": "pIC50", "obs.value": "> 7.30"}
{"molecule": "CCc1cc(NC(=O)C(=O)N2C[C@H](C)CC[C@H]2c2ccc3sc(N)nc3c2)cnc1N (single isomer, unassigned) [Compound 984]", "assayed.target": "PRMT5 (Homo sapiens)", "quantity.name": "pIC50", "obs.value": "< 6.30"}
{"molecule": "Cc1cc(NC(=O)C(=O)N2CCCCC2C2CCC(F)(F)CC2)cnc1N (stereo not shown) [Compound 186]", "assayed.target": "PRMT5 (Homo sapiens)", "quantity.name": "pIC50", "obs.value": "6.30 to 7.30"}

Go through the items and report each one's pIC50.
1. Cc1cc(NC(=O)C(=O)N2C[C@H](C)CC[C@H]2c2ccc3[nH]ncc3n2)cnc1N (single isomer, unassigned) [Compound 788]
2. C[C@@H]1CN(C(=O)C(=O)Nc2cncc(C(N)=O)c2)C[C@H]2CCCC[C@@H]21 (racemic) [Compound 543]
3. C[C@@H]1CC[C@@H](c2ccc3c(c2)C[C@H](C)O3)N(C(=O)C(=O)Nc2cncc(C(N)=O)c2)C1 (single isomer, unassigned) [Compound 345]
4. Cc1nc2cc([C@@H]3CC[C@@H](C)CN3C(=O)C(=O)Nc3cnc(N)c(C)c3)ccc2s1 (single isomer, unassigned) [Compound 730]
5. C[C@@H]1CC[C@@H](c2ccc(OC(F)(F)F)cc2)N(C(=O)C(=O)Nc2cncc(C(N)=O)c2)C1 (racemic) [Compound 250]
6. C[C@@H]1CC[C@H](c2ccc(NCC(=O)N(C)C)cc2)N(C(=O)C(=O)Nc2cncc(C(N)=O)c2)C1 (racemic) [Compound 422]

1. > 7.30
2. 6.30 to 7.30
3. > 7.30
4. < 6.30
5. > 7.30
6. 6.30 to 7.30

Batch of 2 molecules: report pIC50 for each.
1. CC1CCC(C2CCCC2)CN1C(=O)C(=O)Nc1cncc(C(N)=O)c1 (racemic) [Compound 143]
2. NC(=O)c1cncc(NC(=O)C(=O)N2C[C@H](c3cc[nH]n3)CC[C@H]2c2ccccc2)c1 (racemic) [Compound 669]

["6.30 to 7.30", "6.30 to 7.30"]

----------
- assayed.target: PRMT5 (Homo sapiens)
- Construct: purchased Viva (custom protein)
- protocol: PRMT5 biochemical IC50 assay with no cofactor
- condition.info: PRMT5, no cofactor; read-out: No Cofactor/rel IC50
Kindly state IC50 for each of the entries shown.

{"compound": "COc1ncc(NC(=O)C(=O)N2C[C@@H](C)CC[C@@H]2c2ccc(O)cc2)cc1C(N)=O (single isomer, unassigned)", "IC50": "< 50 nM"}
{"compound": "CCc1cc(NC(=O)C(=O)N2C[C@@H](C)CC[C@@H]2c2ccc(N)nc2)cnc1N (single isomer, unassigned)", "IC50": "< 50 nM"}
{"compound": "Cc1cc(NC(=O)C(=O)N2C[C@H](C)CC[C@H]2c2cc(Cl)cc(Cl)c2)cnc1N (single isomer, unassigned)", "IC50": "< 50 nM"}
{"compound": "Cc1cc(NC(=O)C(=O)N2CCC(C(=O)C(C)C)C[C@H]2c2ccc3c(c2)CCC(=O)N3)cnc1N (mixture of isomers)", "IC50": "50 to 500 nM"}
{"compound": "Cc1cc(NC(=O)C(=O)N2C[C@H](C)CC[C@H]2c2ccc(S(N)(=O)=O)cc2)cnc1N (racemic)", "IC50": "50 to 500 nM"}
{"compound": "Cc1cc(NC(=O)C(=O)N2C[C@H](C)CC[C@H]2C2CC3(CC(N)C3)C2)cnc1N (mixture of isomers)", "IC50": "50 to 500 nM"}

Items follow; give IC50 for each.
1. C[C@@H]1CC[C@@H](c2ccc(F)c(Cl)c2)N(C(=O)C(=O)Nc2cncc(C(N)=O)c2)C1 (single isomer, unassigned) [Compound 513]
2. Cc1cc(NC(=O)C(=O)N2C[C@@H](C)CC[C@@H]2c2ccc(-c3ccn[nH]3)cc2)cnc1N (single isomer, unassigned)
3. Cc1ncc(NC(=O)C(=O)N2C[C@H](C)CC[C@H]2c2ccc3c(c2)CCC(=O)N3)cc1Cl (single isomer, unassigned) [Compound 726]
4. C[C@@H]1CC[C@@H](c2ccccc2)N(C(=O)C(=O)Nc2cnc(O)c(C(N)=O)c2)C1 (racemic)
5. CNC(=O)[C@@H]1CC[C@@H](c2ccccc2)N(C(=O)C(=O)Nc2cnc(N)c(C)c2)C1 (racemic)
6. C[C@@H]1CC[C@@H](c2cccc(C(F)(F)F)c2)N(C(=O)C(=O)Nc2cncc(C(N)=O)c2)C1 (racemic) [Compound 265]

> 500 nM
< 50 nM
< 50 nM
50 to 500 nM
> 500 nM
50 to 500 nM

----------
- assayed.target: PRMT5 (Homo sapiens)
- Construct: purchased Viva (custom protein)
- protocol: PRMT5 biochemical IC50 assay with no cofactor
- condition.info: PRMT5, no cofactor; read-out: No Cofactor/rel IC50
pIC50: −log10 of the molar value.
Field: pIC50. Provide a value for each of the compounds that follow.

{"compound": "COc1ncc(NC(=O)C(=O)N2C[C@@H](C)CC[C@@H]2c2ccc3sc(C4CCN(C5CC5)CC4)nc3c2)cc1C(N)=O", "obs.value": "> 7.30"}
{"compound": "CCc1cc(NC(=O)C(=O)N2C[C@@H](C)CC[C@@H]2c2ccc3sc([C@H]4C[C@H](N(C)C)C4)nc3c2)cnc1N", "obs.value": "> 7.30"}
{"compound": "Cc1cc(NC(=O)C(=O)N2C[C@H](C)CC[C@H]2c2ccc3[nH]c(N)nc3c2)cnc1N (racemic)", "obs.value": "6.30 to 7.30"}

Would you mind giving pIC50 for every compound in the list below?
1. C[C@H]1CC[C@H](c2ccc(NCC(F)(F)F)cc2)N(C(=O)C(=O)Nc2cncc(C(N)=O)c2)C1 (single isomer, unassigned)
2. C[C@H]1CC[C@H](c2ccc(NCC(=O)N(C)C)cc2)N(C(=O)C(=O)Nc2cncc(C(N)=O)c2)C1 (single isomer, unassigned)
3. CN(C)c1cccc([C@@H]2CCCCN2C(=O)C(=O)Nc2cncc(C(N)=O)c2)c1 (single isomer, unassigned)

1: < 6.30; 2: < 6.30; 3: 6.30 to 7.30

Hi, could you look up pIC50 for each item in my list?
1. Cc1cc(NC(=O)C(=O)N2CCCCC2C2CCC(F)(F)CC2)cnc1N (stereo not shown)
2. COc1ncc(NC(=O)C(=O)N2CCCCC2C2CCCC2)cc1C(N)=O (single isomer, unassigned) [Compound 289]
3. CCc1cc(NC(=O)C(=O)N2C[C@@H](C)CC[C@@H]2c2ccc3cnccc3c2)cnc1N (single isomer, unassigned)
4. C[C@@H]1CC[C@@H](C2CCC(F)(F)CC2)N(C(=O)C(=O)Nc2cncc(C(N)=O)c2)C1 (single isomer, unassigned)
5. Cc1cc(NC(=O)C(=O)N2C[C@H](C)CC[C@H]2c2cn[nH]c2)cnc1N (single isomer, unassigned)
6. CCc1cc(NC(=O)C(=O)N2C[C@H](C)CC[C@H]2c2cc(Cl)cc(Cl)c2)cnc1N (single isomer, unassigned)
7. Cc1cc(NC(=O)C(=O)N2C[C@@H](C)CC[C@@H]2c2ccc(C(F)(F)F)cc2)cnc1N (single isomer, unassigned)

1. 6.30 to 7.30
2. < 6.30
3. < 6.30
4. < 6.30
5. < 6.30
6. < 6.30
7. < 6.30

For every listed record, write down its pIC50.
1. C[C@@H]1CC[C@@H](c2ccc3nn(CCN(C)C)cc3c2)N(C(=O)C(=O)Nc2cnc(N)c(C3CC3)c2)C1 (single isomer, unassigned)
2. COc1ncc(NC(=O)C(=O)N2C[C@H](C)CC[C@H]2c2ccc3scnc3c2)cc1C(N)=O (single isomer, unassigned)
3. COc1ncc(NC(=O)C(=O)N2C[C@H](C)CC[C@H]2c2cccc3[nH]ncc23)cc1C(N)=O (single isomer, unassigned)

1: > 7.30; 2: < 6.30; 3: < 6.30

# batch size: 6; output pIC50 per entry
1. Cc1cc(NC(=O)C(=O)N2C[C@H](C)CC[C@H]2c2cccc3[nH]ncc23)cnc1N (single isomer, unassigned) [Compound 785]
2. CCc1cc(NC(=O)C(=O)N2C[C@@H](C)CC[C@@H]2c2ccc(C)nc2)cnc1N (single isomer, unassigned)
3. Cc1cc(NC(=O)C(=O)N2C[C@@H](C)CC[C@@H]2c2ccc3sc(C4CCN(C)CC4)cc3c2)cnc1N
4. COc1cccc([C@@H]2CC[C@@H](C)CN2C(=O)C(=O)Nc2cncc(C(N)=O)c2)c1 (racemic)
5. Cc1cc(NC(=O)C(=O)N2C[C@H](C)CC[C@H]2c2cccc3c2CCN3)cnc1N (single isomer, unassigned)
6. C[C@@H]1CC[C@@H](c2ccc3[nH]c(=O)[nH]c3c2)N(C(=O)C(=O)Nc2cncc(C(N)=O)c2)C1 (racemic)

> 7.30
> 7.30
> 7.30
6.30 to 7.30
6.30 to 7.30
6.30 to 7.30

Value source: patent US11999727B2
